System: human Kv4.3/KChIP2.2 potassium channel
Experiment Notes: Whole cell patch clamp, CHO-K1 cells stably expressing human Kv4.3/KChIP2.2
Assay type: cell-based
Reported Conditions: selectivity for Kv4.3 vs hERG (Patch Clamp test); >5 considered very selective
Catalogue of Ratio hERG/Kv4.3 readings, one per entry.
The answer should be written as a number, with no unit following it.

Reference set, count: 6
Cc1nc(Nc2ccc(Cl)cc2)sc1C(=O)N[C@@H]1CCC[C@H]1OCc1ccccc1 [Compound 30]; 8.7
Cc1nc(Nc2ccc(Br)cc2)sc1C(=O)N[C@@H](C)c1ccc2ccccc2c1 [Compound 18]; 6.9
COc1ccc(CNC(=O)c2sc(Nc3ccc(Br)cc3)nc2C)cc1 [Compound 60]; 7.7
COc1ccc(OC)c(Nc2nc(C)c(C(=O)N[C@@H]3CCC[C@H]3OCc3ccccc3)s2)c1 [Compound 33]; 10.0
Cc1nc(Nc2ccc(Br)cc2)sc1C(=O)NCc1cccc2ccccc12 [Compound 56]; 6.6
Cc1nc(Nc2ccc(Br)cc2)sc1C(=O)NCc1ccc(F)c(C(F)(F)F)c1 [Compound 63]; 33.1

What value of Ratio hERG/Kv4.3 has been reported for the following molecule? COc1ccccc1Nc1nc(C)c(C(=O)N[C@@H]2CCC[C@H]2OCc2ccccc2)s1 [Compound 31]
8.7

###

Tested on: C. elegans wild-type strain N2
Experiment Notes: Same C. elegans pumping assay format using wild-type strain N2
Assay type: in vivo
Reported Conditions: Caenorhabditis elegans, read-out: EC50 (μM) Wild type worm N2
Recorded Endpoint: EC50 (µM)
Expressed in µM, but write only the number.

O=C(N[C@@H]1CCC[C@H]1OCc1ccccc1)c1csc(Nc2ccc(F)cc2)n1; 23
COC[C@H](Cc1ccccc1)NC(=O)c1csc(Nc2cc(C)cc(C)c2)n1; 39.5
Cc1nc(Nc2ccc(Br)cc2)sc1C(=O)N[C@@H](C)c1ccc2ccccc2c1; 33

What value of EC50 has been reported for the following compound? "Cc1nc(Nc2ccc(Br)cc2)sc1C(=O)N[C@H](C)c1ccc2ccccc2c1"
33

Here is the next compound: "C[C@@H](NC(=O)c1csc(Nc2ccc(F)cc2)n1)c1ccc([N+](=O)[O-])cc1"
45

Here is the next compound: "O=C(N[C@@H]1CCC[C@H]1OCc1ccccc1)c1csc(Nc2ccccc2)n1"
29.8

Here is the next compound: "CCCN(Cc1ccc([N+](=O)[O-])cc1)C(=O)c1csc(Nc2ccc(Cl)cc2)n1"
43

###

Assay System: Ito (Kv4.3) (Homo sapiens)
Construct: endogenous in cells
Sequence (Q9UK17 1-655): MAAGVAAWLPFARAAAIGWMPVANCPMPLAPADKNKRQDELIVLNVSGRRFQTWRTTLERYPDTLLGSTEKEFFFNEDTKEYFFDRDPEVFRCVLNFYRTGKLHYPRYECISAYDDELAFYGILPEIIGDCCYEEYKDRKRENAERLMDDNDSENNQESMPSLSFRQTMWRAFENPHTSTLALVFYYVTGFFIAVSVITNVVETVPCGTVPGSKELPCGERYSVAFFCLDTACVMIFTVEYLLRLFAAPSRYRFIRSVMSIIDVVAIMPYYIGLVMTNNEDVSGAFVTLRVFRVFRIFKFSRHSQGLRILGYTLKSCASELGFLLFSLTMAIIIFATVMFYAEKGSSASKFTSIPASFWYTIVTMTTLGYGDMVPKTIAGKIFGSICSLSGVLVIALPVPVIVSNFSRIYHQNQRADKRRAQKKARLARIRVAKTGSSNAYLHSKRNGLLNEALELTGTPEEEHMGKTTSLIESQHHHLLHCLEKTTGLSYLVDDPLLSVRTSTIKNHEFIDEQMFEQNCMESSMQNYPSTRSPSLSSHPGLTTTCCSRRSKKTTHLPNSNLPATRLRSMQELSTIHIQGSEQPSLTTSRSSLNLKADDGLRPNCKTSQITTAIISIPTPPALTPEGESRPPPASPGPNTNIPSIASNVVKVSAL
Sequence (Q9NS61 1-270 partner): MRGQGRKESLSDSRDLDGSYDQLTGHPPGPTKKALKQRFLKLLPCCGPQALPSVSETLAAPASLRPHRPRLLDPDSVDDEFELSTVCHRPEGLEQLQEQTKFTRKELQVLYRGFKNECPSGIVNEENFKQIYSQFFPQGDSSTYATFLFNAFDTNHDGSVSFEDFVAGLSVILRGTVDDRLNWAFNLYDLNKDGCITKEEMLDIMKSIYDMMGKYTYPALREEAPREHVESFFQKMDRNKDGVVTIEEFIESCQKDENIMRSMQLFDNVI
Experiment Notes: Whole-cell patch clamp in human atrial myocytes: Ito
Reported Conditions: dose-response analysis, read-out: IC50 on the ITO current
Recorded Endpoint: IC50 (µM)
Expressed in µM, but write only the number.

What value of IC50 has been reported for the following molecule? COc1ccccc1Nc1nc(C)c(C(=O)N[C@H]2CCC[C@@H]2OCc2ccccc2)s1 [Compound 68]
0.8

###

Assay System: human Kv4.3 (Homo sapiens, UniProt Q9UK17)
Construct: expressed in transfected cells; host or cells: transgenic C. elegans strain UG1755 (N2 injected with plasmid pGV8, integrated array)
Experiment Notes: C. elegans based high-throughput screen for Kv4.3 modulators (pharynx pumping, Calcein AM uptake), transgenic strain UG1755
Type: in vivo
Reported Conditions: transgenic strain UG1755 expressing human Kv4.3; read-out: EC50 (μM) Kv4.3 worm
Source text: A C. elegans based high-throughput screen for Kv4.3 modulators has been used to establish an in vivo SAR (structure-activity relationships: the effect of chemical structure on biological activity) on Kv4.3 for the compounds according to the present invention. […] The active compounds have been identified and confirmed by dose-response analysis. An EC50 has been calculated and the results are listed under Table 3. […] EC50 has been calculated using XLfit 2.09 software package.
Recorded Endpoint: log10 of EC50 (log10 of the value in µM)
Values reflect log10 of reported EC50 (µM).

COC[C@H](Cc1ccccc1)NC(=O)c1csc(Nc2cc(C)cc(C)c2)n1; 1.06
Cc1nc(Nc2ccc(Br)cc2)sc1C(=O)NCc1ccccc1; 1.40
Cc1cccc(C)c1Nc1nc(C(=O)N[C@H](C)c2ccc([N+](=O)[O-])cc2)cs1; 1.28
Cc1nc(Nc2ccc(Br)cc2)sc1C(=O)NCc1cc(C(F)(F)F)cc(C(F)(F)F)c1; 1.23
O=C(N[C@@H]1CCC[C@H]1OCc1ccccc1)c1csc(Nc2ccc(F)cc2)n1; 0.78
Cc1nc(Nc2ccc(Br)cc2)sc1C(=O)N[C@H](C)c1ccc2ccccc2c1; 0.85
Cc1cc(C)cc(Nc2nc(C(=O)N[C@@H]3CCC[C@H]3OCc3ccccc3)cs2)c1; 0.11
Cc1nc(Nc2ccc(Br)cc2)sc1C(=O)N[C@@H](C)c1ccc2ccccc2c1; 1.13

What value of log10 of EC50 has been reported for the following compound? "O=C(N[C@@H]1CCCC[C@H]1OCc1ccccc1)c1csc(Nc2ccc(F)cc2)n1"
1.24

Here is the next compound: "COc1ccc(Cl)cc1Nc1nc(C(=O)N[C@@H]2CCCC[C@H]2OCc2ccccc2)cs1"
1.23

Here is the next compound: "O=C(N[C@@H]1CCC[C@H]1OCc1ccccc1)c1csc(Nc2ccc(Cl)cc2)n1"
1.08

###

Assay System: human Kv4.3/KChIP2.2 potassium channel (Homo sapiens)
Construct: expressed in transfected cells
Experiment Notes: Whole cell patch clamp, CHO-K1 cells stably expressing human Kv4.3/KChIP2.2
Type: cell-based
Reported Conditions: CHO-K1; remaining current measured after application of the compound and relative to the blank; read-out: Kv4.3 charge in %
Catalogue of remaining activity at 1 µM readings, one per entry.
Expressed in %, but write only the number.

COc1ccccc1Nc1nc(C)c(C(=O)N2CCN(Cc3ccccc3)C[C@@H]2Cc2ccccc2)s1; 74

What value of remaining activity at 1 µM has been reported for the following compound? "Cc1nc(Nc2ccc3occc3c2)sc1C(=O)N[C@H]1CCC[C@@H]1OCc1ccccc1"
58

Here is the next compound: "COc1ccccc1Nc1nc(C)c(C(=O)NCc2ccc3c(c2)CCO3)s1"
77

Here is the next compound: "COc1ccccc1Nc1nc(C)c(C(=O)Nc2ccccc2)s1"
82

Here is the next compound: "COc1ccccc1Nc1nc(C)c(C(=O)NCc2ccsc2)s1"
85

###

Recorded Endpoint: melting point

Reference set, count: 5
COc1ccccc1N(C)c1nc(C)c(C(=O)N[C@H](CO)c2ccccc2)s1 [Compound 150]; 119.4 °C
COc1ccccc1Nc1nc(C)c(C(=O)NCc2ccc(C)cc2)s1 [Compound 142]; 166.8 to 168.3 °C
COc1ccc(CNC(=O)c2oc(Nc3ccccc3OC)nc2C)c(OC)c1 [Compound 222]; 68.7 to 82.4 °C
COc1ccccc1Nc1nc(C)c(C(=O)N2CCC(c3ccc(C)cc3)CC2)s1 [Compound 168]; 187.7 to 191.5 °C
COc1ccccc1Nc1nc(C)c(C(=O)NCc2ccc(CNC(C)=O)cc2)s1 [Compound 96]; 199.7 to 200.3 °C

What value of melting point has been reported for the following molecule? "Cc1nc(Nc2ccc(Cl)cc2)sc1C(=O)NNc1ccc([N+](=O)[O-])cc1[N+](=O)[O-]"
138 to 164.7 °C

Here is the next molecule: COc1ccccc1Nc1nc(C)c(C(=O)N2CCCC2c2ccccc2)s1 (centres unmarked) [Compound 176]
113.5 to 117.6 °C

Here is the next molecule: COc1ccccc1Nc1nc(C)c(C(=O)N2CCC(Cc3ccccc3)CC2)s1 [Compound 174]
166.8 to 169.2 °C

Here is the next molecule: COc1ccccc1Nc1nc(C)c(C(=O)Nc2ccc(Cn3cccn3)cc2)s1 [Compound 166]
211.3 to 214.4 °C

Here is the next molecule: Cc1nc(NC(=O)c2ccc(C(C)(C)C)cc2)sc1C(=O)N[C@H]1CCC[C@@H]1OCc1ccccc1 [Compound 180]
88.7 to 90 °C

Here is the next molecule: Cc1nc(Nc2ccc(N3CCOCC3)cc2)sc1C(=O)N[C@H]1CCC[C@@H]1OCc1ccccc1 [Compound 92]
192.5 to 194.9 °C

Here is the next molecule: COc1ccccc1Nc1nc(C)c(C(=O)NC(C)c2ccccc2)s1 (centres unmarked) [Compound 130]
60.3 to 62.4 °C

Here is the next molecule: COc1ccccc1Nc1nc(C)c(C(=O)NC2Cc3ccccc3C2)s1 [Compound 83]
143.2 to 147.6 °C

Here is the next molecule: COc1ccccc1Nc1nc(C)c(C(=O)NCc2ccccc2OC(F)(F)F)s1 [Compound 157]
76.1 to 80.2 °C

Here is the next molecule: COc1ccccc1Nc1nc(C)c(C(=O)NCc2ccc(-c3cccs3)cc2)s1 [Compound 103]
195.6 to 198.6 °C

Here is the next molecule: COc1ccccc1Nc1nc(C)c(C(=O)N(Cc2ccccc2)c2ccccc2)s1 [Compound 216]
167.2 to 170 °C
